- Test system: Bacillus cereus
- run.description: Antimicrobial activity against Bacillus cereus DSM 4313 assessed as growth inhibition at 20 ug per disc after 24 to 48 hrs (reference value: 0 millimeter)
- Format: functional
- condition.details: read-out: DIZ
measure.name: zone of inhibition at 20 µg/disc

1) O=C1CCc2ccc(O)c(c2)-c2cc(ccc2O)C[C@@H](O)[C@H](O)[C@H]1O (mixture of isomers) = 5 mm
2) O=C1CCc2ccc(O[C@@H]3O[C@H](CO)[C@@H](O)[C@H](O)[C@H]3O)c(c2)-c2cc(ccc2O)C[C@@H](O)[C@H](O)[C@H]1O (mixture of isomers) = 0 mm
3) O=C1Cc2ccc(O)c(c2)-c2cc(ccc2O)C[C@@H](O)[C@@H](O)[C@@H](O)[C@H]1O (mixture of isomers) = 9.67 mm
4) C[C@@H]1O[C@@H](Oc2c(-c3ccc(O)cc3)oc3cc(O)cc(O)c3c2=O)[C@H](O)[C@H](O)[C@H]1OC(=O)/C=C/c1ccc(O)cc1 = 3.33 mm
